Test: Toxicity against human hepatocytes
Type: cell-based, Hepatocyte
pIC50: −log10 of the molar value.
endpoint_label: pIC50

The value of pIC50 measured for the molecule `C[C@H](N)C(=O)NCc1cccc(-n2nc(C(F)(F)F)cc2-c2nnc(-c3cccc4ncsc34)o2)c1` turned out to be < 4.00

###

Please respond with reported Papp for every item in the list.
Assay: Membrane permeability by PAMPA
Type: ADME
Details: read-out: permeability
Could you give me the number in ×10⁻⁶ cm/s? Just the number is fine.

For reference, reported Papp for `C[C@H](N)C(=O)NCc1cccc(-n2nc(C(F)(F)F)cc2-c2nnc(-c3ccccc3)o2)c1` stands at 10.6

Entry under test: `C[C@H](N)C(=O)NCc1cccc(-n2nc(C(F)(F)F)cc2-c2nnc(-c3cccc4ncsc34)o2)c1` . Its Papp was 26.7

Data origin: ChEMBL document CHEMBL1136918
